All values here come from paper PMC8634379.

# TEST_SUMMARY: Pharmacokinetic study after IP administration
# Format: in vivo, male C57BL/6 mice
# TEST_SETTINGS: male, C57BL/6, mouse, in vivo, ip, 3 mg/kg
OBSERVABLE: Cmax (ng/mL)
Provide the reading as a plain figure in ng/mL.

CHEMICAL_SMILES: O=C(NC12CC3CC(Cl)(CC(C1)c1ccccc13)C2)N[C@H]1CC[C@H](Oc2ccc(C(=O)O)cc2)CC1
Cmax (ng/mL): 3580

Now examine the next entry.
**Q:** Which Cmax is listed for "CC12CC3CC(NC(=O)N[C@H]4CC[C@H](Oc5ccc(C(=O)O)cc5)CC4)(CC(C1)c1ccccc13)C2" ?
**A:** 1610

###

Below is a list of entries, each paired with its recorded half-life value.
# TEST_SUMMARY: Pharmacokinetic study after IP administration
# Format: in vivo, male C57BL/6 mice
# TEST_SETTINGS: male, C57BL/6, mouse, in vivo, ip, 3 mg/kg
Kindly provide the numeric value in h only, without the unit symbol.

CHEMICAL_SMILES: O=C(NC12CC3CC(Cl)(CC(C1)c1ccccc13)C2)N[C@H]1CC[C@H](Oc2ccc(C(=O)O)cc2)CC1
half-life / h: 5.2

Please turn your attention to the following entry.
**Q:** Which measured half-life value corresponds to "CC12CC3CC(NC(=O)N[C@H]4CC[C@H](Oc5ccc(C(=O)O)cc5)CC4)(CC(C1)c1ccccc13)C2" ?
**A:** 1.17

###

# TEST_SUMMARY: Solubility in 1% DMSO: 99% PBS (nephelometry)
# Assay type: physicochemical
# TEST_SETTINGS: PBS with 1% DMSO, 1% DMSO: 99% PBS buffer solution, 37 °C
OBSERVABLE: solubility at 2 h (µM)
Give just the number in µM; leave the unit off.

Below, each entry is followed by its recorded solubility at 2 h result.
CHEMICAL_SMILES: O=C(NC12CC3CC(F)(CC(C1)c1ccccc13)C2)N[C@H]1CC[C@H](Oc2ccc(C(=O)O)cc2)CC1
OBSERVABLE: solubility at 2 h
RECORDED_NUMBER: 7
--
CHEMICAL_SMILES: CC12CC3CC(NC(=O)N[C@H]4CC[C@H](Oc5ccc(C(=O)O)cc5)CC4)(CC(C1)c1ccccc13)C2
OBSERVABLE: solubility at 2 h
RECORDED_NUMBER: 4

# evaluate next
**Q:** Recorded solubility at 2 h of "O=C(NC12CC3CC(Cl)(CC(C1)c1ccccc13)C2)N[C@H]1CC[C@H](Oc2ccc(C(=O)O)cc2)CC1" , please.
**A:** 13

###

Consider the following molecules and their measured pIC50 readings.
# STUDY_SYSTEM: CYP 2C19 (Homo sapiens, UniProt P33261)
# Sequence (P33261 whole entry): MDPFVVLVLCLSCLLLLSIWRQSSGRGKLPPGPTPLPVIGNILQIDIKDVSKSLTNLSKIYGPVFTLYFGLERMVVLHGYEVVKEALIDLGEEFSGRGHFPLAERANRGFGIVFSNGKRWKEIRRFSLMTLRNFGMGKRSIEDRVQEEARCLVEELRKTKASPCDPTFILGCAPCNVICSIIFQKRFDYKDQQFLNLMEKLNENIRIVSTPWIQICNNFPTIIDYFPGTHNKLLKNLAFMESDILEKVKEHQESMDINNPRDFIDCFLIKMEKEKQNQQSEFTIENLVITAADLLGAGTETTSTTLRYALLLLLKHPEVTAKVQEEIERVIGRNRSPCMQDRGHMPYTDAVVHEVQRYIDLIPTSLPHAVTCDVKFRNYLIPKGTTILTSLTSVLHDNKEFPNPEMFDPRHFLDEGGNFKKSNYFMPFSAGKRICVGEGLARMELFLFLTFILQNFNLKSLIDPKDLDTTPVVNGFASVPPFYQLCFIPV
# TEST_SUMMARY: Cytochrome P450 inhibition, fluorescence detection
# Type: in vitro ADME
pIC50: −log10 of the molar value.

CHEMICAL_SMILES: O=C(NC12CC3CC(Cl)(CC(C1)c1ccccc13)C2)N[C@H]1CC[C@H](Oc2ccc(C(=O)O)cc2)CC1
pIC50: ~5.70

Then there is this molecule:
**Q:** Give its pIC50 value. Item: "CC12CC3CC(NC(=O)N[C@H]4CC[C@H](Oc5ccc(C(=O)O)cc5)CC4)(CC(C1)c1ccccc13)C2"
**A:** ~5.70
